# tgt: Metabotropic glutamate receptor 5 (Rattus norvegicus, UniProt P31424)
# Sequence (P31424 whole entry): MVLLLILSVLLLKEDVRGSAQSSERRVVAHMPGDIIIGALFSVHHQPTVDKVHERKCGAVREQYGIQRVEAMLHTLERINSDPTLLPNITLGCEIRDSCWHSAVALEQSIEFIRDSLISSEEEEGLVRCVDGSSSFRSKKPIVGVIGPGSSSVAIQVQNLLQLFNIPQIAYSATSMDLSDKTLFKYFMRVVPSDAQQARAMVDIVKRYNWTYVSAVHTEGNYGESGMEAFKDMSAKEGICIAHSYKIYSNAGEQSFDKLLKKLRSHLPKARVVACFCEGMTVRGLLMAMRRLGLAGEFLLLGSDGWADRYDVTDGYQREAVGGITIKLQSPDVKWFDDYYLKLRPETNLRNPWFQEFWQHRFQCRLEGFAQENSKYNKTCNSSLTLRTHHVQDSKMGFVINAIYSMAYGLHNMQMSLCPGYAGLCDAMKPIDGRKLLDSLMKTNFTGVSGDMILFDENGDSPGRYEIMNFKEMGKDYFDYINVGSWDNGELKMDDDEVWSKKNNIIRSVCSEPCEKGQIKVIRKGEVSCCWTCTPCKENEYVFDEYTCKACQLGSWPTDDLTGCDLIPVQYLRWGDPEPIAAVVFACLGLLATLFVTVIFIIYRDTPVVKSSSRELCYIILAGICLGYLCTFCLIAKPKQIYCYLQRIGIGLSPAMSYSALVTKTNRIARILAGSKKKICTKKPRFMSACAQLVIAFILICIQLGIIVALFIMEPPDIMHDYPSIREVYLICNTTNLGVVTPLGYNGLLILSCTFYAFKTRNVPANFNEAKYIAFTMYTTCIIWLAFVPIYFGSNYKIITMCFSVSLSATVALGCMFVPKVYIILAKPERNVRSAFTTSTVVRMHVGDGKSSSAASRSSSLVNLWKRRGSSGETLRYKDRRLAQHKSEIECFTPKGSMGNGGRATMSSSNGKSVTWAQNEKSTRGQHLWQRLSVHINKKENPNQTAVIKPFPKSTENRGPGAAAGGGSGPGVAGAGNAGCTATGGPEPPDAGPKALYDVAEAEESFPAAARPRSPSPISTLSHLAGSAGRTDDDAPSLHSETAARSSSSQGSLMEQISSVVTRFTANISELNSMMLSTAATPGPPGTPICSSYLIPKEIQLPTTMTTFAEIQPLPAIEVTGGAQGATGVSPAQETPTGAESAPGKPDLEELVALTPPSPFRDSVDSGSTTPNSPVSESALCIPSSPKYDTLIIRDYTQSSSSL
# protocol: Positive allosteric modulation of rat mGlu5 expressed in HEK293 cells in presence of glutamate EC20 concentration by Fluo-2AM dye based fluorescence analysis
# Type: cell-based
outcomeMeasure: pEC50
Answers are plain numbers, as −log10 of the molar value.

Problem: Query: pEC50; subject: O=C(c1ccc(C#Cc2ccccc2)cc1)N1CCC(O)CC1
Solution: 6.57

====

# protocol: Volume of distribution at steady-state concentration in rat at 1 mg/kg, iv
# Assay type: ADME, organism-based
# Parameters: dose 1 mg/kg, route intravenous
# conditionsUsed: in vivo, read-out: Vdss
outcomeMeasure: Vd (L/kg)
Answers are plain numbers, in L/kg.

Problem: Entry COc1ccc(C#Cc2ccc(C(=O)N3CCC[C@@H](CO)C3)cc2)cc1 has what Vd?
Solution: 0.6

====

# tgt: Metabotropic glutamate receptor 2 (Homo sapiens)
# protocol: Negative allosteric modulation of mGlu2 assessed as thallium flux through GIRK channels by cell-based assay
outcomeMeasure: IC50 (µM)
Answers are plain numbers, in µM.

Problem: Quick check: IC50 of Clc1ccc(CN[C@H]2CCN(c3ncc(Br)cn3)C2)c(Cl)c1 ?
Solution: 17

====

Target chain: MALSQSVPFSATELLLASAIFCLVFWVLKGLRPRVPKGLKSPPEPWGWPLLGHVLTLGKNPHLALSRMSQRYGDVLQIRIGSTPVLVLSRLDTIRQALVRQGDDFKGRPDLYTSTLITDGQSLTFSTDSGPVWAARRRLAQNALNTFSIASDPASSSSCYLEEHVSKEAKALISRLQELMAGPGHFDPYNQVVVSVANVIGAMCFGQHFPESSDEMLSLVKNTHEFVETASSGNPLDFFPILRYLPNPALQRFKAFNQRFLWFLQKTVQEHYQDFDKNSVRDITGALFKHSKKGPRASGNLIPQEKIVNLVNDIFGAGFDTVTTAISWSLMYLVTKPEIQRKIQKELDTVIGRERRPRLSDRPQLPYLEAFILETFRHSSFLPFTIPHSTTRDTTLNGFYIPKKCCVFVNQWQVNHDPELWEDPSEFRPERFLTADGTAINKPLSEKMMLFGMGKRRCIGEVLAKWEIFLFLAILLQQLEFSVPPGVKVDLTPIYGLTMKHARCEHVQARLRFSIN
outcomeMeasure: IC50

Problem: Which IC50 value belongs to COc1ccc(C#Cc2ccc(C(=O)N3CCC[C@@H](CO)C3)cc2)cc1 ?
Solution: > 30 µM

====

# Tested on: Plasma
# protocol: Plasma concentration in rat at 10 mg/kg
# Type: ADME, organism-based
# Parameters: dose 10 mg/kg
# conditionsUsed: in vivo
outcomeMeasure: concentration (µM)
Give bare numbers, in µM.

Problem: Reported concentration for COc1ccc(C#Cc2ccc(C(=O)N3CCC[C@@H](CO)C3)cc2)cc1 : what is it?
Solution: 9.7

====

Provide the reported pIC50 of each item.
# tgt: Metabotropic glutamate receptor 2 (Homo sapiens, UniProt Q14416)
# Sequence (Q14416 whole entry): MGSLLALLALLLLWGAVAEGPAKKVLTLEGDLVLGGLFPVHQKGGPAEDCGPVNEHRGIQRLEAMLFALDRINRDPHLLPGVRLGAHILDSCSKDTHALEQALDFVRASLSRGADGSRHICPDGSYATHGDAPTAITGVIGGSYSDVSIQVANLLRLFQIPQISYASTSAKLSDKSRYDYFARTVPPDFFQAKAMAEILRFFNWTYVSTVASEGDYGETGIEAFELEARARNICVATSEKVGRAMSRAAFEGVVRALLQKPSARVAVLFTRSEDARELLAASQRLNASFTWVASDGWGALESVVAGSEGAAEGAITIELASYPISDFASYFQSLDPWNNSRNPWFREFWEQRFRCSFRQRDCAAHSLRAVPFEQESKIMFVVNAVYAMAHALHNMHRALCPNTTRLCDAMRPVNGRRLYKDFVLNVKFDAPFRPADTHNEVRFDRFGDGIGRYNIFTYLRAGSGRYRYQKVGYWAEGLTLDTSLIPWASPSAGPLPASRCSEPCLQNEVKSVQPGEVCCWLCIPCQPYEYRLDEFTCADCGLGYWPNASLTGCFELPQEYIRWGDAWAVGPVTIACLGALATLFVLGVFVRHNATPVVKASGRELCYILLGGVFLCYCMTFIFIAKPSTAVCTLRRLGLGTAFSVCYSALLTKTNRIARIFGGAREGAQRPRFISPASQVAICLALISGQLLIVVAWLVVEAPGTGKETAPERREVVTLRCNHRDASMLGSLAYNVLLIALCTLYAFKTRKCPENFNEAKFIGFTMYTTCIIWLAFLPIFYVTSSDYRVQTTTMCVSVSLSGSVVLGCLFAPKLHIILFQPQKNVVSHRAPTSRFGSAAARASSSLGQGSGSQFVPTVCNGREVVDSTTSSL
# protocol: Negative allosteric modulation of mGlu2 by cell-based assay
pIC50: −log10 of the molar value.

- testSmiles: "Cc1cc(-c2cccc(C3=Nc4cc(C)c(C(F)(F)F)cc4NC(=O)C3)c2)cc(C)n1"
  outcomeMeasure: "pIC50"
  reportedValue: 6.53

Hi, could you look up pIC50 for each item in my list?
1. COc1ccc(C#Cc2ccc(C(=O)N3CCC[C@@H](CO)C3)cc2)cc1
2. COc1ccc(C#Cc2ccc(C(=O)N3CCC[C@H](CO)C3)cc2)cc1

Solution:
["< 5.00", "< 5.00"]
